Target: mtGPAT1 (Mus musculus)
Construct: from tissue; host or cells: mitochondrial preparation
Sequence (Q61586 1-827): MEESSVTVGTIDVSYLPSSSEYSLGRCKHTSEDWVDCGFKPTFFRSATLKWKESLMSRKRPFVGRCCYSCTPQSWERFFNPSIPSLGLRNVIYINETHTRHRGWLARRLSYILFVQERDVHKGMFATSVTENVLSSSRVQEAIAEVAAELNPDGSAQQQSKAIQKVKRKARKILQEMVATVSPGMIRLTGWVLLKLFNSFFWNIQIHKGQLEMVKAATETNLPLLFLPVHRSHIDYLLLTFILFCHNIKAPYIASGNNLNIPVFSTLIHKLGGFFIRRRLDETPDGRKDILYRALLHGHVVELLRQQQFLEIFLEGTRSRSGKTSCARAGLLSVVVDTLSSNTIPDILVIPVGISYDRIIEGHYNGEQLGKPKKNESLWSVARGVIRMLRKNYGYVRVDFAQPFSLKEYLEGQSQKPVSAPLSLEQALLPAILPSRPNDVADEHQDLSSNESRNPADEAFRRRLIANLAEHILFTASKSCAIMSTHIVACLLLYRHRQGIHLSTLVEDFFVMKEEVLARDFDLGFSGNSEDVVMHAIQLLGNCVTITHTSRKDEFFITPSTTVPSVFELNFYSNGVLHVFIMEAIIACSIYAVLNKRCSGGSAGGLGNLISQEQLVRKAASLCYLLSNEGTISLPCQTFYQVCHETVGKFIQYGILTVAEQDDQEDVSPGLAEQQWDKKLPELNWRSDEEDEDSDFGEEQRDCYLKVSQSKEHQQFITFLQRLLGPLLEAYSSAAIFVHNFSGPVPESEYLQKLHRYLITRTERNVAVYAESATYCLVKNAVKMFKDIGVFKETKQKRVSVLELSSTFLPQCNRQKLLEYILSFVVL
Test: In vitro mtGPAT inhibition: acylation of 14C-glycerol 3-phosphate with palmitoyl-CoA, scintillation counting
Type: biochemical
Settings: Table 2, sulfonamides 15a-i and 17a-f; triplicate; read-out: IC50 (μM) ± SD, In Vitro Anti-mtGPAT1 Activity
Label key: fulfilled means IC50 under 30 µM; not fulfilled means IC50 of 30 µM or more.

Here are 2 molecules together with their reported answers.
[[record]]
molecule = "O=C(O)c1ccccc1NS(=O)(=O)CCc1ccccc1 [Compound 17f, 2-(2-Phenylethylsulfonamido)benzoic acid]"
discretelabel = "not fulfilled"

[[record]]
molecule = "O=C(O)c1cccc(NS(=O)(=O)CCc2ccccc2)c1 [Compound 17d, 3-(2-Phenylethylsulfonamido)benzoic acid]"
discretelabel = "not fulfilled"


Q: Is the reported IC50 for O=C(O)c1ccc(NS(=O)(=O)Cc2ccccc2)cc1 [Compound 17a, 4-(Phenylmethylsulfonamido)benzoic acid] strictly below 30 µM?
A: not fulfilled

====

List of IC50 values.
Biological target: mtGPAT1 (Mus musculus)
Construct: from tissue; host or cells: mitochondrial preparation
Sequence (Q61586 1-827): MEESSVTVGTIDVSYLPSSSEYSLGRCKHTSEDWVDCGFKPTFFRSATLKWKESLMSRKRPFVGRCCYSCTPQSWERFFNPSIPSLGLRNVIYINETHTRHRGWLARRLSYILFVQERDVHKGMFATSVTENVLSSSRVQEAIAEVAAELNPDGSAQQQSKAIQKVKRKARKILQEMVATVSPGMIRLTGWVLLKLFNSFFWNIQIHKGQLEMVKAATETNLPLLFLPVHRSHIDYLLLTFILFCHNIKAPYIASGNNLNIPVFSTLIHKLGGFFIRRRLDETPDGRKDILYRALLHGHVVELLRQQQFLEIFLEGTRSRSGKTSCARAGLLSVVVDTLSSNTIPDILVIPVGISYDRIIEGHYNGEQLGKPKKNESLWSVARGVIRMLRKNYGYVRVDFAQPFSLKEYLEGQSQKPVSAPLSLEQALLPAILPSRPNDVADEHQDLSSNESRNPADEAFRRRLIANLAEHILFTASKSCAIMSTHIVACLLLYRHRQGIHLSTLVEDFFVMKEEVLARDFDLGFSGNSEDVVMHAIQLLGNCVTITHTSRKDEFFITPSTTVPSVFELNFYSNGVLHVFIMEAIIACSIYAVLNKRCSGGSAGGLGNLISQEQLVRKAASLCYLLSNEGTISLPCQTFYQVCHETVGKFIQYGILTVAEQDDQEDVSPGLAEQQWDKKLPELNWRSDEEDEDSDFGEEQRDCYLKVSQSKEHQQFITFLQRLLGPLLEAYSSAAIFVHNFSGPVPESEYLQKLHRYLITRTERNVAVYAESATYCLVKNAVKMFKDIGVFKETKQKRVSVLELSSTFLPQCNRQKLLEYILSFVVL
Assay: In vitro mtGPAT inhibition: acylation of 14C-glycerol 3-phosphate with palmitoyl-CoA, scintillation counting
Assay type: biochemical
Conditions: Table 3, sulfonamides 21a-c and 24a-f; triplicate; read-out: IC50 (μM) ± SD, In Vitro Anti-mtGPAT1 Activity
Numbers only here, please. The scale is µM.

Q: Query: IC50; subject: CCCCCCCCCCCCCCS(=O)(=O)Nc1ccccc1C(=O)O [Compound 24b, 2-(Tetradecylsulfonamido)benzoic acid]
A: 6.9

Q: Then this compound: CCCCCCCCS(=O)(=O)Nc1ccccc1P(=O)(O)O [Compound 21c]
A: 25.7

Q: Then this compound: CCCCCCCCCCCCCCCCS(=O)(=O)Nc1ccccc1C(=O)O [Compound 24c, 2-(Hexadecylsulfonamido)benzoic acid]
A: 7.8
